Just for reference, patent US20170008888A1 is where these values come from.

Target: ERK5 (Homo sapiens, UniProt Q13164)
Construct: screened for activity against several kinases in Jurkat cells; endogenous in cells; host or cells: Jurkat cell lysate
Sequence (Q13164 whole entry): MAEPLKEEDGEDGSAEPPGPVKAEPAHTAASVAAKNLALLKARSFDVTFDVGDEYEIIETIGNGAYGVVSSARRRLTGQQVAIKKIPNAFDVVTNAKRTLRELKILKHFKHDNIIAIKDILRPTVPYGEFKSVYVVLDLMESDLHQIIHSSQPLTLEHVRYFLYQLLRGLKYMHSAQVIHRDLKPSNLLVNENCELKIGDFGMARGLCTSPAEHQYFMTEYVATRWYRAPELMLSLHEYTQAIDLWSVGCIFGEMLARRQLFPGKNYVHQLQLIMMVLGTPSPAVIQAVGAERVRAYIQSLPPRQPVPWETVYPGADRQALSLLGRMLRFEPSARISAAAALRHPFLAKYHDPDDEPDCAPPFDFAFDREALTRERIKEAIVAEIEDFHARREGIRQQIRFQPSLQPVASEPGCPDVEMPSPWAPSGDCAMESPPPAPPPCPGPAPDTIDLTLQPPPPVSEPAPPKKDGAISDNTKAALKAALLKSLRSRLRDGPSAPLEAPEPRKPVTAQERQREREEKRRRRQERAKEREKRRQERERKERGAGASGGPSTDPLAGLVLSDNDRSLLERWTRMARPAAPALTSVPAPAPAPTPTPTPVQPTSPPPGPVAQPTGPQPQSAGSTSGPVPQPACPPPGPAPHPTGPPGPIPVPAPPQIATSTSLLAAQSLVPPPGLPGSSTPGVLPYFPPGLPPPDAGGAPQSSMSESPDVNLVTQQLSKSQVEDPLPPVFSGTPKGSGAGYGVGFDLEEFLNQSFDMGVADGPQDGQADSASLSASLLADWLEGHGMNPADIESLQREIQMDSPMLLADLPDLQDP
Experiment: Probe-based (AX9989 acyl phosphate ATP probe) kinase profiling in Jurkat lysate: ERK5
Type: binding
Details: screening concentration 1.0 μM; read-out: Kinase inhibition % at indicated screening concentration: ERK5
inhibition at 1 µM overview

// solved cases for inhibition at 1 µM follow
# compound, inhibition at 1 µM
rows = [
    ("CCOc1cc(C(=O)N[C@H]2CCCOC2)ccc1Nc1cc2c(cn1)N(C)C(=O)c1ccccc1N2C", "50 to 75%"),
    ("CN1C(=O)c2ccccc2N(C)c2cc(NC3CCC(N)CC3)ncc21 (stereo not drawn)", "75 to 90%"),
    ("CCOc1cc(C(=O)N2CCC(CN3CCOCC3)CC2)ccc1Nc1cc2c(cn1)N(C)C(=O)c1ccccc1N2C", "> 90%"),
    ("CCN(CC)CCNC(=O)c1ccc(OC)c(Nc2cc3c(cn2)N(C)C(=O)c2ccccc2N3C)c1", "75 to 90%"),
    ("CN1CCC(c2ccc(Nc3cc4c(cn3)N(C)C(=O)c3ccccc3N4C)cc2)CC1", "> 90%"),
]

So what inhibition at 1 µM did CCOc1cc(C(=O)NCCN2CCN(C)CC2)ccc1Nc1cc2c(cn1)N(C)C(=O)c1ccccc1N2C get with ERK5 (Homo sapiens, UniProt Q13164)?
75 to 90%

// query: CN1C(=O)c2ccccc2N(C)c2cc(NC3CCC(C(=O)O)CC3)ncc21 (stereo not drawn)
35 to 50%

Request: CN1C(=O)c2ccccc2N(C)c2cc(N[C@H]3CC[C@H](O)CC3)ncc21
75 to 90%

Try this compound too: CCOc1cc(C(=O)N2CCC(OC)CC2)ccc1Nc1cc2c(cn1)N(C)C(=O)c1ccccc1N2C
> 90%

Try this compound too: CC(=O)NC1CCC(Nc2cc3c(cn2)N(C)C(=O)c2ccccc2N3C)CC1 (stereo not drawn)
50 to 75%

Now the compound CCOc1cc(C(=O)N2CCC(N3CCCC3)CC2)ccc1Nc1cc2c(cn1)N(C)C(=O)c1scnc1N2C
> 90%

Then this compound: CN1C(=O)c2ccccc2N(C)c2cc(N[C@H]3CC[C@H](NS(C)(=O)=O)CC3)ncc21
75 to 90%

Further, for CCOc1cc(C(=O)Nc2ccncc2)ccc1Nc1cc2c(cn1)N(C)C(=O)c1ccccc1N2C ?
35 to 50%
